Where do these numbers come from? They come from the RNAGym collection of RNA variant scans (doi:10.7554/elife.80360).

B1: HDV Ribozyme (parent)
chain: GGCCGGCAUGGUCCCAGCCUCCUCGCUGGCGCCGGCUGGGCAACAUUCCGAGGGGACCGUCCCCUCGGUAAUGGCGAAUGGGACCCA

- Variants of: B1
- test name: self-cleavage, relative activity (ratio to wild type); higher = more cleavage; co-transcriptional
Note to self: class labels come from recorded self-cleavage, ranges listed here: lower bin: < 0.2; middle bin: ≥ 0.2 and < 0.6; upper bin: ≥ 0.6

## Task Returns: class label. Input: A16C G50C
## Result upper bin

## Task Returns: class label. Input: C24U G35A
## Result middle bin

## Task Returns: class label. Input: C33U A45U
## Result middle bin

## Task Returns: class label. Input: G11A C26G
## Result upper bin

## Task Returns: class label. Input: G29U C63U
## Result lower bin

## Task Returns: class label. Input: C41A C84A
## Result middle bin

## Task Returns: class label. Input: A42C U69G
## Result middle bin

## Task Returns: class label. Input: U9A C18A
## Result lower bin

## Task Returns: class label. Input: U23C C44G
## Result lower bin

## Task Returns: class label. Input: A42G C61G
## Result upper bin

## Task Returns: class label. Input: C36U G81U
## Result middle bin

## Task Returns: class label. Input: C66U U79A
## Result upper bin

## Task Returns: class label. Input: G11C A42C
## Result lower bin

## Task Returns: class label. Input: U47A U79C
## Result middle bin

## Task Returns: class label. Input: U9C C66U
## Result upper bin

## Task Returns: class label. Input: A16C C84G
## Result upper bin

## Task Returns: class label. Input: C62U G82C
## Result middle bin

## Task Returns: class label. Input: C18A G38U
## Result lower bin

## Task Returns: class label. Input: C4A U72C
## Result lower bin

## Task Returns: class label. Input: U65G A87U
## Result upper bin

## Task Returns: class label. Input: C13U G55C
## Result upper bin

## Task Returns: class label. Input: U72A U79G
## Result middle bin

## Task Returns: class label. Input: C21A A45C
## Result lower bin

## Task Returns: class label. Input: C44G G55A
## Result upper bin

## Task Returns: class label. Input: G31U C64A
## Result middle bin

## Task Returns: class label. Input: G34C G76A
## Result lower bin

## Task Returns: class label. Input: G29C A71G
## Result lower bin

## Task Returns: class label. Input: G68A C84U
## Result upper bin

## Task Returns: class label. Input: G40A C61A
## Result upper bin

## Task Returns: class label. Input: C4G G34A
## Result lower bin

## Task Returns: class label. Input: G2C G5A
## Result lower bin

## Task Returns: class label. Input: U9C G29A
## Result middle bin

## Task Returns: class label. Input: C15U U46C
## Result upper bin

## Task Returns: class label. Input: C3U G25U
## Result lower bin

## Task Returns: class label. Input: G1U C84G
## Result middle bin

## Task Returns: class label. Input: G35A C75A
## Result lower bin

## Task Returns: class label. Input: G1U C49A
## Result middle bin

## Task Returns: class label. Input: C58U G67U
## Result upper bin

## Task Returns: class label. Input: U20G C49A
## Result middle bin

## Task Returns: class label. Input: C75G A77U
## Result middle bin

## Task Returns: class label. Input: U69C C84G
## Result upper bin

## Task Returns: class label. Input: G17A C26U
## Result upper bin

## Task Returns: class label. Input: U27G A70U
## Result middle bin

## Task Returns: class label. Input: G6U C7G
## Result lower bin
